Test: qHTS of pediatric cancer cell lines to identify multiple opportunities for drug repurposing: Primary screen for Saos-2 cells (AID 1347097); note: nearly all actives have a fitted effect of over 40% in size; note: potency is the fitted concentration of half-maximal effect
Settings: Saos-2 viability, CellTiter-Glo ATP luminescence, 48 h; series mostly up to 46 µM
Procedure: Drug repurposing or repositioning has been offered as a strategy for drug development in oncology programs. This approach has special potential for childhood cancers and other rare or orphan diseases, where the expected return on new drug development has been a disincentive to pharmaceuticals. […] We employed a titration-based paradigm (quantitative high-throughput screening or qHTS), where all compounds were tested at multiple concentrations for their effect on cell viability. […]
Records with an inconclusive call do not appear. The source made the active and inactive calls. Calls come from the whole dose curve; as a rule, active = well fitted cell-killing curve with a large enough effect; inconclusive = small, poorly fitted or top-dose-only effect; inactive = no such curve, though single readings can be large or run the other way.
MEASUREMENT_LABEL: Potency

Would you please look over these solved cases?
O=c1c(-c2ccc(O)cc2)coc2cc(O)cc(O)c12    inactive
CCC1(c2ccccc2)C(=O)NCNC1=O    inactive
CNCCCC12CCC(c3ccccc31)c1ccccc12    26.4 µM (active)
CC(C(=O)O)c1cccc(C(=O)c2ccccc2)c1 (centres undefined)    inactive
C[C@](N)(Cc1ccc(O)c(O)c1)C(=O)O    inactive
O=C1N(c2ccccc2)c2ccccc2C1(Cc1ccncc1)Cc1ccncc1    inactive

Q: For the molecule "Cc1cn([C@H]2C[C@H](N=[N+]=[N-])[C@@H](CO)O2)c(=O)[nH]c1=O" , what Potency is on record?
A: inactive

Q: For the molecule "CN1CCN(CCCN2c3ccccc3Sc3ccc(Cl)cc32)CC1" , what Potency is on record?
A: 0.235 µM (active)

Q: For the molecule "Nc1c2c(nc3ccccc13)CCCC2" , what Potency is on record?
A: inactive

Q: For the molecule "CC[N+](CC)(CC)CCOc1cccc(OCC[N+](CC)(CC)CC)c1OCC[N+](CC)(CC)CC" , what Potency is on record?
A: inactive

Q: For the molecule CC1COc2c(N3CCN(C)CC3)c(F)cc3c(=O)c(C(=O)O)cn1c23 (centres undefined) , what Potency is on record?
A: inactive

Q: For the molecule "CN(Cc1cnc2nc(N)nc(N)c2n1)c1ccc(C(=O)N[C@@H](CCC(=O)O)C(=O)O)cc1" , what Potency is on record?
A: inactive

Q: For the molecule "Cn1c(=O)c2[nH]cnc2n(C)c1=O" , what Potency is on record?
A: inactive

Q: For the molecule "Cn1ccc2cc3c(cc21)CCN3C(=O)Nc1cccnc1" , what Potency is on record?
A: inactive

Q: For the molecule "CC#C[C@]1(O)CC[C@H]2[C@@H]3CCC4=CC(=O)CCC4=C3[C@@H](c3ccc(N(C)C)cc3)C[C@@]21C" , what Potency is on record?
A: 2.64 µM (active)

Q: For the molecule "CCOC(=O)Nc1ccc(NCc2ccc(F)cc2)nc1N" , what Potency is on record?
A: inactive

Q: For the molecule "O=C(CCCN1CCC(O)(c2ccc(Cl)cc2)CC1)c1ccc(F)cc1" , what Potency is on record?
A: inactive

Q: For the molecule COc1ccc(C2CNC(=O)C2)cc1OC1CCCC1 (centres undefined) , what Potency is on record?
A: inactive

Q: For the molecule CN1C2CCC1CC(OC(=O)C(CO)c1ccccc1)C2 (centres undefined) , what Potency is on record?
A: inactive

---

target: Nuclear receptor subfamily 1 group I member 2 (Rattus norvegicus) (UniProt Q9R1A7); experiment: qHTS assay for small molecule activators of the rat pregnane X receptor (rPXR) signaling pathway (AID 651751); conditions: rPXR reporter cells, luciferase (One-Glo), 24 h; note: 0% is about no effect
Sequence (Q9R1A7 whole entry, looked up): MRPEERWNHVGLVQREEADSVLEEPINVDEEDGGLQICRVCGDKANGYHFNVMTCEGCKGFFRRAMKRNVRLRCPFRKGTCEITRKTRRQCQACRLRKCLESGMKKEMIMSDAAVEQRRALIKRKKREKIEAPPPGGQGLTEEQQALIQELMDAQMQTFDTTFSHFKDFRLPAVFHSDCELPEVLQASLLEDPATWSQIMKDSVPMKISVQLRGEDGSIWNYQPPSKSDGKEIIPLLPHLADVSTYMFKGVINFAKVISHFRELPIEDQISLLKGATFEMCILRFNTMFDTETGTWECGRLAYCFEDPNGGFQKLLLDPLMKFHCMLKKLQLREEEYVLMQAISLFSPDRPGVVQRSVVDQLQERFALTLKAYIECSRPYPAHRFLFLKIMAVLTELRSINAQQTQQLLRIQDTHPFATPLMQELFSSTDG
MEASUREMENT_LABEL: max response (%)
Lab book: enter the figure in %, no units written.

Q: For the compound "CN(Cc1cnc2nc(N)nc(N)c2n1)c1ccc(C(=O)N[C@@H](CCC(=O)O)C(=O)O)cc1" , what max response is on record?
A: -4.55

Q: For the compound "C[C@](N)(Cc1ccc(O)c(O)c1)C(=O)O" , what max response is on record?
A: -1.2

Q: For the compound "Cn1c(=O)c2[nH]cnc2n(C)c1=O" , what max response is on record?
A: 5.46

Q: For the compound "Cn1cnc2c1c(=O)[nH]c(=O)n2C" , what max response is on record?
A: 2.94

Q: For the compound CC(C)(Oc1ccc(C2CC2(Cl)Cl)cc1)C(=O)O (configuration not stated) , what max response is on record?
A: 27.5

Q: For the compound "CCOC(=O)C(C)(C)Oc1ccc(Cl)cc1" , what max response is on record?
A: 2.24

Q: For the compound "N[C@@H](Cc1c[nH]c2ccc(O)cc12)C(=O)O" , what max response is on record?
A: 2.83

---

experiment: Cell Viability - NIH 3T3 (AID 541); conditions: NIH 3T3 cell viability, qHTS;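 note: cells exposed to compound for 40 hours; nearly all actives have a fitted effect of over 25% in size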
Records with an inconclusive call do not appear. The source made the active and inactive calls. Calls follow the shape of the dose curve; as a rule, active = well fitted cell-killing curve with a large enough effect; inconclusive = small, poorly fitted or top-dose-only effect; inactive = flat fitted curve, though single readings scatter.
Parameter call: string, one of active, inactive

Q: Each molecule tested received a call. Report the one for "Cn1c(=O)c2c(ncn2C)n(C)c1=O" .
A: inactive

Q: Each molecule tested received a call. Report the one for Clc1ccc(C(c2ccccc2Cl)C(Cl)Cl)cc1 (stereo unspecified) .
A: inactive

Q: Each molecule tested received a call. Report the one for "Nc1c2c(nc3ccccc13)CCCC2" .
A: inactive

Q: Each molecule tested received a call. Report the one for CC(C)NCC(O)c1ccc(O)c(O)c1 (stereo unspecified) .
A: inactive

Q: Each molecule tested received a call. Report the one for "CCC1(c2ccccc2)C(=O)NCNC1=O" .
A: inactive

Q: Each molecule tested received a call. Report the one for "O=c1[nH]cc(F)c(=O)[nH]1" .
A: active

Q: Each molecule tested received a call. Report the one for "COc1ccc2c(c1)c(CC(=O)O)c(C)n2C(=O)c1ccc(Cl)cc1" .
A: inactive

Q: Each molecule tested received a call. Report the one for "N[C@@H](Cc1c[nH]c2ccc(O)cc12)C(=O)O" .
A: inactive

Q: Each molecule tested received a call. Report the one for "Cn1c(=O)c2[nH]cnc2n(C)c1=O" .
A: inactive

Q: Each molecule tested received a call. Report the one for "Cc1cn([C@H]2C=C[C@@H](CO)O2)c(=O)[nH]c1=O" .
A: inactive

Q: Each molecule tested received a call. Report the one for "NS(=O)(=O)c1cc2c(cc1Cl)NCNS2(=O)=O" .
A: inactive

---

test: Quantitative High-Throughput drug screen in 47 multiple myeloma cell lines against the NCATS MIPE library collection: FR4_PLB cell viability assay (AID 1918924; note: nearly all actives have a fitted effect of over 35% in size); conditions: FR4_PLB myeloma cells viability, CellTiter-Glo ATP, 48 h; series mostly up to 45.8 µM
Inconclusive results are not listed. Calls of active or inactive are those of the source. The call rests on the fitted dose curve; in most records, active means well fitted cell-killing curve with a large enough effect; inconclusive means small, poorly fitted or top-dose-only effect, or effect the other way; inactive means no such curve, though single readings can be large or run the other way.
Parameter call: string, one of true for active, false for inactive

Q: Each molecule tested received a call. Report the one for "NCCc1cnc[nH]1" .
A: false

Q: Each molecule tested received a call. Report the one for "NC(=O)OCC(COC(N)=O)c1ccccc1" .
A: false

Q: Each molecule tested received a call. Report the one for "Nc1nnc(-c2cccc(Cl)c2Cl)c(N)n1" .
A: false

Q: Each molecule tested received a call. Report the one for "O=C(c1ccc(OCCN2CCCCC2)cc1)c1c(-c2ccc(O)cc2)sc2cc(O)ccc12" .
A: true

Q: Each molecule tested received a call. Report the one for "Nc1c2c(nc3ccccc13)CCCC2" .
A: false

Q: Each molecule tested received a call. Report the one for "Cn1c(=O)c2[nH]cnc2n(C)c1=O" .
A: false

Q: Each molecule tested received a call. Report the one for "NC12CC3CC(CC(C3)C1)C2" .
A: false

Q: Each molecule tested received a call. Report the one for "Clc1ccc2nsnc2c1NC1=NCCN1" .
A: false

Q: Each molecule tested received a call. Report the one for "CN(CCOc1ccc(NS(C)(=O)=O)cc1)CCc1ccc(NS(C)(=O)=O)cc1" .
A: false

Q: Each molecule tested received a call. Report the one for "NC(=O)NO" .
A: true

Q: Each molecule tested received a call. Report the one for CCN1CCCC1CNC(=O)c1cc(S(=O)(=O)CC)c(N)cc1OC (centres undefined) .
A: false

Q: Each molecule tested received a call. Report the one for "NCCS(=O)(=O)O" .
A: false

Q: Each molecule tested received a call. Report the one for "Cn1cnc2c1c(=O)[nH]c(=O)n2C" .
A: true

Q: Each molecule tested received a call. Report the one for "C[C@](N)(Cc1ccc(O)c(O)c1)C(=O)O" .
A: false

---

experiment: Quantitative High-Throughput drug screen in 47 multiple myeloma cell lines against the NCATS MIPE library collection: ARD_JJKsccE7 cell viability assay (AID 1918929;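 for viability: 100% = DMSO-only wells and 0% = media-only wells without cells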); conditions: ARD myeloma cell line viability, CellTiter-Glo, 48 h; series mostly up to 45.8 µM
Inconclusive results are not listed. Calls of active or inactive are those of the source. Calls come from the whole dose curve; as a rule, active = well fitted cell-killing curve with a large enough effect; inconclusive = small, poorly fitted or top-dose-only effect, or effect the other way; inactive = no such curve, though single readings can be large or run the other way.
Parameter call: string, one of Y (active), N (inactive)

Q: Each molecule tested received a call. Report the one for "COc1cc2nc(N3CCN(C(=O)c4ccco4)CC3)nc(N)c2cc1OC" .
A: Y

Q: Each molecule tested received a call. Report the one for CCc1cccc2c3c([nH]c12)C(CC)(CC(=O)O)OCC3 (centres undefined) .
A: N

Q: Each molecule tested received a call. Report the one for "COC(=O)Nc1nc2ccc(C(=O)c3cccs3)cc2[nH]1" .
A: Y

Q: Each molecule tested received a call. Report the one for CC(C)(Oc1ccc(C2CC2(Cl)Cl)cc1)C(=O)O (centres undefined) .
A: N

Q: Each molecule tested received a call. Report the one for "NCCS(=O)(=O)O" .
A: N

Q: Each molecule tested received a call. Report the one for COc1ccccc1OCC(O)CN1CCN(CC(=O)Nc2c(C)cccc2C)CC1 (centres undefined) .
A: N

Q: Each molecule tested received a call. Report the one for "Nc1nc2c(ncn2COC(CO)CO)c(=O)[nH]1" .
A: Y

Q: Each molecule tested received a call. Report the one for "O=C(Nc1ccc([N+](=O)[O-])cc1Cl)c1cc(Cl)ccc1O" .
A: Y

Q: Each molecule tested received a call. Report the one for "CN1CCC(=C2c3ccccc3CC(=O)c3sccc32)CC1" .
A: N

Q: Each molecule tested received a call. Report the one for "Fc1ccc([C@@H]2CCNC[C@H]2COc2ccc3c(c2)OCO3)cc1" .
A: N

Q: Each molecule tested received a call. Report the one for "CN(C)CCC=C1c2ccccc2C=Cc2ccccc21" .
A: N

Q: Each molecule tested received a call. Report the one for CCC1(C)CC(=O)NC1=O (centres undefined) .
A: Y

Q: Each molecule tested received a call. Report the one for "CC(C)C(=O)Nc1ccc([N+](=O)[O-])c(C(F)(F)F)c1" .
A: Y

Q: Each molecule tested received a call. Report the one for "COc1ccc2[nH]cc(CCNC(C)=O)c2c1" .
A: N

Q: Each molecule tested received a call. Report the one for "CN(C)C(=O)C(CCN1CCC(O)(c2ccc(Cl)cc2)CC1)(c1ccccc1)c1ccccc1" .
A: N

Q: Each molecule tested received a call. Report the one for "O=C1c2c(O)ccc(O)c2C(=O)c2c(NCCNCCO)ccc(NCCNCCO)c21" .
A: Y

Q: Each molecule tested received a call. Report the one for "Cn1c(=O)c2c(ncn2C)n(C)c1=O" .
A: N

Q: Each molecule tested received a call. Report the one for "CN1C(C(=O)Nc2ccccn2)=C(O)c2ccccc2S1(=O)=O" .
A: N

Q: Each molecule tested received a call. Report the one for "CS(=O)(=O)CCNCc1ccc(-c2ccc3ncnc(Nc4ccc(OCc5cccc(F)c5)c(Cl)c4)c3c2)o1" .
A: Y

Q: Each molecule tested received a call. Report the one for "NC(=O)OCC(COC(N)=O)c1ccccc1" .
A: N

Q: Each molecule tested received a call. Report the one for O=C(C1CCCCC1)N1CC(=O)N2CCc3ccccc3C2C1 (centres undefined) .
A: N

Q: Each molecule tested received a call. Report the one for "Cc1cn([C@H]2C[C@H](N=[N+]=[N-])[C@@H](CO)O2)c(=O)[nH]c1=O" .
A: N

Q: Each molecule tested received a call. Report the one for "CCCCc1oc2ccccc2c1C(=O)c1cc(I)c(OCCN(CC)CC)c(I)c1" .
A: Y

Q: Each molecule tested received a call. Report the one for "CN(C)CCCN1c2ccccc2CCc2ccc(Cl)cc21" .
A: Y
